STUDY SYSTEM: acid-sensing ion channel 3 (rASIC3) (Rattus norvegicus, UniProt O35240)
Construct: gene Asic3
TEST: whole-cell patch clamp, rASIC3-transfected CHO cells, activation at pH […] (estimated EC50; also potentiates pH […] and pH […] responses)
Format: cell-based
READOUT TYPE: EC50

## Input Provide EC50 value for the following molecule: N=C(N)N/N=C/c1c(Cl)cccc1Cl
## Output ~67.5 µM

###

STUDY SYSTEM: acid-sensing ion channel 3 (rASIC3) (Rattus norvegicus, UniProt O35240)
Construct: gene Asic3
Sequence (O35240 1-533): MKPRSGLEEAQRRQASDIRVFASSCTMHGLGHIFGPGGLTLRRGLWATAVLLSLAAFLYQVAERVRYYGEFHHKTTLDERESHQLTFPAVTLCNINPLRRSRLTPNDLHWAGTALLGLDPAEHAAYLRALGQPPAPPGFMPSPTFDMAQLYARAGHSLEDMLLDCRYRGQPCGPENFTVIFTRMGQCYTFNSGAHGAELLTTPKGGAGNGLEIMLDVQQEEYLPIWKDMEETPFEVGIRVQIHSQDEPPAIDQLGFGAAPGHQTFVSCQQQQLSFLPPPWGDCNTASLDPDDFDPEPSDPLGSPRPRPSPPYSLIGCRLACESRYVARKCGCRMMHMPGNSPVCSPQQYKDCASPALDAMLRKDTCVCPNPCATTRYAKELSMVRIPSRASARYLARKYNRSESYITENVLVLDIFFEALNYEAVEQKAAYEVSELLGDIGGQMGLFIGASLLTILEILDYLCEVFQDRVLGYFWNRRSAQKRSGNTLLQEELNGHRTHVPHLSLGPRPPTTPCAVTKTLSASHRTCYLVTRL
TEST: whole-cell patch clamp, rASIC3-transfected CHO cells, activation at pH […] (reference agonist; estimated EC50)
Type: cell-based
READOUT TYPE: EC50

## Input Give the value of EC50 reported for the following: Cc1nc(NC(=N)N)nc2ccccc12
## Output ~680 µM

Measured values drawn from paper PMC7068650 for this set.
